B1: PDS5B (parent)
chain: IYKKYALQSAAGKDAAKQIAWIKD

variants of: B1; experiment: protein stability index of a GFP-peptide fusion (GPS, HEK-293T) (PSI 1-6); higher = more stable; conditions: c terminus: a fixed tail appended;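 note: lentivirally expressed fusions sorted by FACS into six bins by GFP to DsRed ratio, PSI derived from sequencing read proportions per bin multiplied by bin number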
PROPERTY LABEL: protein stability index
One number for each entry.

Provide each entry's protein stability index from the list below.
1. A20W
2. A10S
3. Q18Y
4. D14I
5. Q18N

[A]
2.68
2.36
1.33
1.82
2.49
